- experimental_target: T1, human Siglec-7 expressed on human cells (primary monocytes, dendritic cells, macrophages, NK cells, … (human, UniProt Q9Y286 19-467))
- T1 construct: Endogenous receptor on cells; also called Siglec-7 receptor
- T1 sequence (Q9Y286 19-467): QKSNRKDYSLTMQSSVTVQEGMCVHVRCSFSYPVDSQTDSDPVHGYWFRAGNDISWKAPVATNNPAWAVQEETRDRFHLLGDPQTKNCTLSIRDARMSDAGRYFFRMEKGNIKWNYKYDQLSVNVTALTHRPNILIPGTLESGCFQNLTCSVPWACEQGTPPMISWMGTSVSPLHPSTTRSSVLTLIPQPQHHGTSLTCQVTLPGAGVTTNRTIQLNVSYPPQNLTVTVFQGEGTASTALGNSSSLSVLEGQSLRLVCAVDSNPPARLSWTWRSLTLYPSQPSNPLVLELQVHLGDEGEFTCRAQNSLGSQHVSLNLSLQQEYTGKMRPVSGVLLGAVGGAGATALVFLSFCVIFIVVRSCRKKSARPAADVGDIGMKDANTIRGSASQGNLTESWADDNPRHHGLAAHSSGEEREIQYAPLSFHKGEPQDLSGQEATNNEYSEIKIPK
- procedure_text: FACS, human primary macrophages, 10 ug/ml mAb
quantity_name: MFI
Response field accepts a number only; no unit should be typed.

INSERT INTO results (binder, quantity_name, experimental_value) VALUES
  ('anti-Siglec-7 antibody 2G4 (antibody, V domains shown, Variable domains assembled from FR and CDR entries) VH: QVQLQQSGSELRSPGSSVKLSCKDFDSEVFPITYMNWVRQKPGHGFEWIGDILPSIGRTMYGEKFEDKATLDADTVSNTAYLELNSLTSEDSAIYYCARSEGYLLAYWGQGTLVTVSA VL: DIQMTQSLSYLSVSLGGRVTITCKASDHINNWLAWYQQKPGNAPRLLISGATSLETGFPSRFSGSGSGKDYTLSITSLQTEDVATYYCHQYWNTPYTFGGGTRLEIK', 'MFI', 15500),
  ('anti-Siglec-7 antibody 2G1 (antibody, V domains shown, Variable domains assembled from FR and CDR entries; the printed VL FR1 looks shortened at its N-terminus; also called 2G11 (misprint in text)) VH: EVKLVESGGTLVKPGGSLKISCAASGFTFSNYDMSWVRQNPEKRLEWVATISSGGDYTYYPDIFKGRFTISRDDAKNALYLQMSSLRSEDTALYYCARHGYGNYDWYFDVWGAGATVTVSS VL: VLTQSPAIMSASPGEKVTMTCSANSSFIYMYWYQQKPGSSPRLLIFDTSNLASGVPIRFSGSGSGTSYSLTISRMEAEDTATYYCQQWSSSPLTFGGGTKLELK', 'MFI', 25700);

Give the measured MFI for anti-Siglec-7 antibody 1A12 (antibody, V domains shown, also called 1Al2) VH: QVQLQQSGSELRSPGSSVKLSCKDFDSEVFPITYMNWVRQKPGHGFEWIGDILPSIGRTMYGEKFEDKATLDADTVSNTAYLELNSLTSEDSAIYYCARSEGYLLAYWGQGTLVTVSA VL: DVZMTQTPLSLPVSLGDQASISCRSSQSLVHSTGNTYLHWYLQKPGQSPKLLIYKVSNRFSGVPDRFSGSGAGTDFTLKISRVEAEDLGVYFCSQNTHVPYTFGGGTKLEIK
15800

These entries and their values trace back to patent US20200277374A1.
